- test_target: Bcl-2-like protein 1 (Homo sapiens)
- Sequence (Q07817 whole entry): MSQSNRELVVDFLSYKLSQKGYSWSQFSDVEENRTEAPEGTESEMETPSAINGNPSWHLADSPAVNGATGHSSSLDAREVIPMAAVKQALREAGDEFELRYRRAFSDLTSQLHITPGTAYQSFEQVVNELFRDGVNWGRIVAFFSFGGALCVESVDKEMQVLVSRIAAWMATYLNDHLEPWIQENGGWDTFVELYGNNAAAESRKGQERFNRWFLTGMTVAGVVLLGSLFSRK
- assay_summary: Inhibition of human Bcl-XL
measurement_kind: IC50

Some molecules with known IC50 results, for comparison:
O=C(O)c1cccc(-c2ccc(/C=c3\sc4n(c3=O)C(c3cccc(F)c3)C3=C(N=4)/C(=C/c4cccc(F)c4)CCC3)o2)c1 (stereo not drawn) ... > 100 µM
COc1ccccc1C1C2=C(N=c3s/c(=C\c4cccc(OCC(=O)O)c4)c(=O)n31)c1cccc(OC(=O)c3ccccc3-c3ccccc3)c1CC2 (stereo not drawn) ... > 100 µM

# IC50 lookup, item COc1ccc2c(c1)CCC1=C2N=c2s/c(=C\c3ccc(-c4cccc(C(=O)O)c4)o3)c(=O)n2C1c1cccc(F)c1 (stereo not drawn)
> 100 µM

* * *

- Tested on: OVCAR-3
- assay_summary: Cytotoxicity against human OVCAR-3 cells after 48 hrs by MTT assay
- condition_parameters: OVCAR-3, 48 h
The following compounds are listed with their measured pEC50 values.
Note on units: pEC50 is unitless, being -log10 of a concentration expressed in mol/L.

Some compounds with known pEC50 results, for comparison:
COc1ccc(C2C3=C(N=c4s/c(=C\c5ccc(-c6cccc(C(=O)O)c6)o5)c(=O)n42)c2ccccc2CC3)cc1 (centres undefined) ... 5.14
O=C(O)COc1cccc(/C=c2\sc3n(c2=O)C(c2ccco2)C2=C(N=3)c3ccccc3CC2)c1 (centres undefined) ... 5.07
O=C(O)c1cccc(-c2ccc(/C=c3\sc4n(c3=O)C(c3cccc(F)c3)C3=C(N=4)/C(=C/c4cccc(F)c4)CCC3)o2)c1 (centres undefined) ... 4.93

# pEC50 lookup, item COc1cccc(C2C3=C(N=c4s/c(=C\c5ccc(-c6cccc(C(=O)O)c6)o5)c(=O)n42)c2ccccc2CC3)c1 (centres undefined)
5.10
